test: Cytotoxicity against African green monkey Vero E6 cells assessed as reduction in cell viability measured after 24 hrs by CCK-8 method; type: toxicity, cell-based, Chlorocebus sabaeus, Vero C1008
test_readout: IC50 at 24 h (µg/mL)
// return numeric value only (unit: µg/mL, not printed)

// worked examples, IC50 at 24 h included
O=C(CCC(F)(F)F)N(Cc1cc2ccccc2s1)c1cc(-c2ccccc2)ccc1O
22.9
O=C(CCC(F)(F)F)N(Cc1cc2ccccc2s1)c1cc(-c2ccc(F)cc2)ccc1O
17.3
O=C(CCC(F)(F)F)N(Cc1cc2ccccc2s1)c1cc(-c2ccc(Cl)cc2)ccc1O
21.5
O=C(CCC(F)(F)F)N(Cc1cc2ccccc2s1)c1cc(-c2ccc(C(F)(F)F)cc2)ccc1O
5.55

The recorded IC50 at 24 h for entry `O=C(CCC(F)(F)F)N(Cc1cc2ccccc2s1)c1cc(-c2cccc(C(F)(F)F)c2)ccc1O` equals 20.3

====

system: Staphylococcus aureus; assay: Antimicrobial activity against methicillin resistant Staphylococcus aureus clinical isolate MRS207 assessed as reduction in bacterial growth incubated for 24 hrs by two-fold broth dilution method; type: functional
Examples of compounds with documented MIC follow.

O=C(CCC(F)(F)F)N(Cc1cc2ccccc2s1)c1cc(-c2ccccc2)ccc1O
2 µg/mL
O=C(CCC(F)(F)F)N(Cc1cc2ccccc2s1)c1cc(-c2ccc(Cl)cc2)ccc1O
16 µg/mL
COc1cccc(-c2ccc(O)c(N(Cc3cc4ccccc4s3)C(=O)CCC(F)(F)F)c2)c1
> 16 µg/mL
O=C(CCC(F)(F)F)N(Cc1cc2ccccc2s1)c1cc(-c2ccc(F)cc2)ccc1O
3 µg/mL
O=C(CCC(F)(F)F)N(Cc1cc2ccccc2s1)c1cc(-c2ccco2)ccc1O
8 µg/mL
O=C(CCC(F)(F)F)N(Cc1cc2ccccc2s1)c1cc(-c2ccc(C(F)(F)F)cc2)ccc1O
16 µg/mL
COc1cccc(OC)c1C(=O)N[C@@H]1C(=O)N2[C@@H]1SC(C)(C)[C@@H]2C(=O)O [METHICILLIN]
16 µg/mL
COc1ccccc1-c1ccc(O)c(N(Cc2cc3ccccc3s2)C(=O)CCC(F)(F)F)c1
> 16 µg/mL

// returns MIC for `COc1ccc(-c2ccc(O)c(N(Cc3cc4ccccc4s3)C(=O)CCC(F)(F)F)c2)cc1` with Staphylococcus aureus; value = > 16 µg/mL

// returns MIC for `O=C(CCC(F)(F)F)N(Cc1cc2ccccc2s1)c1cc(-c2cccc(C(F)(F)F)c2)ccc1O` with Staphylococcus aureus; value = 6 µg/mL

// returns MIC for `O=C(CCC(F)(F)F)N(Cc1cc2ccccc2s1)c1cc(-c2noc(C(F)(F)F)n2)ccc1O` with Staphylococcus aureus; value = 1 µg/mL

====

system: Staphylococcus aureus; assay: Antimicrobial activity against methicillin resistant Staphylococcus aureus clinical isolate MRS70 assessed as reduction in bacterial growth incubated for 24 hrs by two-fold broth dilution method; assay type: functional
Examples of compounds with documented MIC follow.
// return numeric value only (unit: µg/mL, not printed)

The recorded MIC for entry `COc1ccccc1-c1ccc(O)c(N(Cc2cc3ccccc3s2)C(=O)CCC(F)(F)F)c1` equals 16

The recorded MIC for entry `O=C(CCC(F)(F)F)N(Cc1cc2ccccc2s1)c1cc(-c2ccco2)ccc1O` equals 6

The recorded MIC for entry `O=C(CCC(F)(F)F)N(Cc1cc2ccccc2s1)c1cc(-c2ccc(C(F)(F)F)cc2)ccc1O` equals 6

The recorded MIC for entry `O=C(CCC(F)(F)F)N(Cc1cc2ccccc2s1)c1cc(-c2cccc(C(F)(F)F)c2)ccc1O` equals 6

The recorded MIC for entry `O=C(CCC(F)(F)F)N(Cc1cc2ccccc2s1)c1cc(-c2ccccc2)ccc1O` equals 3

The recorded MIC for entry `O=C(CCC(F)(F)F)N(Cc1cc2ccccc2s1)c1cc(-c2ccc(F)cc2)ccc1O` equals 6

The recorded MIC for entry `COc1cccc(OC)c1C(=O)N[C@@H]1C(=O)N2[C@@H]1SC(C)(C)[C@@H]2C(=O)O` equals 16

The recorded MIC for entry `O=C(CCC(F)(F)F)N(Cc1cc2ccccc2s1)c1cc(-c2ccc(Cl)cc2)ccc1O` equals 6

The recorded MIC for entry `O=C(CCC(F)(F)F)N(Cc1cc2ccccc2s1)c1cc(-c2noc(C(F)(F)F)n2)ccc1O` equals 1
